Reference source for all entries: the supplement of paper PMC7877785

experimentSummary: self-splicing fitness, log relative to wild type (ln ratio); higher = more splicing; Tetrahymena group I intron in knt gene, E. coli kanamycin selection, DiMSum; sequences stand for … in CUCUCU…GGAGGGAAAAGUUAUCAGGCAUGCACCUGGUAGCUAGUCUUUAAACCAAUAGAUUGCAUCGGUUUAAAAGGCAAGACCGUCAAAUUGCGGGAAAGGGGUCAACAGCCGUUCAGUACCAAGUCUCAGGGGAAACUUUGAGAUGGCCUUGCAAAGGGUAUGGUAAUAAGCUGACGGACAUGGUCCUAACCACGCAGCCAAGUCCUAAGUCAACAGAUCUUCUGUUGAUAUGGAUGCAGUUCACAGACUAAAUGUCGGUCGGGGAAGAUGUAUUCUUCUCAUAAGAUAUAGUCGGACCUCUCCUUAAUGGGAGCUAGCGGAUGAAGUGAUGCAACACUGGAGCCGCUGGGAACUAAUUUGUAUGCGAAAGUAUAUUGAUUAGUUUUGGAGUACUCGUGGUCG;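 further: selection with 25 µg/mL kanamycin versus none on LB agar overnight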
setupConditions: 30 °C
Readings of self-splicing fitness (ln) for the listed sequences
observedProperty: self-splicing fitness (ln)

                     seq  resultvalue
 0  GUAGAGCAAUAUUACGCACG       -0.718
 1  CACCAGCAAUAUUACGACUC        -3.42
 2  UCACAGCAAUAUUACGGCAC        -2.93
 3  AAACAGCAAUAUUACGAGCA        -1.76
 4  UCUUAGCAAUAUUACGUAGG        -1.26
 5  UCGCAGCAAUAUUACGCAUU        -2.57
 6  CACCAGCAAUAUUACGCGAG       -0.893
 7  UAACAGCAAUAUUACGACCA       -0.808
 8  CCUUAGCAAUAUUACGGGGC        -3.39
 9  UCACAGCAAUAUUACGGUUA       -0.541
10  UUUAAGCAAUAUUACGUUAA        -1.68
11  UGGGAGCAAUAUUACGGCGG        -2.86
12  AUACAGCAAUAUUACGUGUU        -3.98
13  CUUGAGCAAUAUUACGAAAC           -4
14  UCCGAGCAAUAUUACGGAUG        -4.09
15  GAUUAGCAAUAUUACGGAGU        -2.77

----------
experimentSummary: self-splicing fitness, log relative to wild type (ln ratio); higher = more splicing; Tetrahymena group I intron in knt gene, E. coli kanamycin selection, DiMSum; sequences stand for … in CUCUCU…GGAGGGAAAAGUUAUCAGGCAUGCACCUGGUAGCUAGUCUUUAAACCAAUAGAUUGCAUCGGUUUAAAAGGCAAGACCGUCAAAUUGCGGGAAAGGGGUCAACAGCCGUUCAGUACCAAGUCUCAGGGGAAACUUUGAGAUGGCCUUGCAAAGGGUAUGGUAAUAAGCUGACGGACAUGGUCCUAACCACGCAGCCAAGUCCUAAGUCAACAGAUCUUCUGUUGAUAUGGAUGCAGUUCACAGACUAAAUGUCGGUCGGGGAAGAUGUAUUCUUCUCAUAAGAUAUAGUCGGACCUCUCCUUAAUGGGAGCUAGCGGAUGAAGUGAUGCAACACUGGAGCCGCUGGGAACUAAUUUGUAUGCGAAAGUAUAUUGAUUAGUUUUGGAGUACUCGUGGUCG
setupConditions: 37 °C
Kind request: treat -2 as inclusive, so self-splicing fitness (ln) at -2 or higher is True, anything lower is False.

>>> print(df.to_string())
                     seq  labelclass
 0  GCCAAGCAAUAUUACGGCUG       False
 1  GUGAAGCAAUAUUACGCUGU        True
 2  UUAAAGCAAUAUUACGCGGU        True
 3  ACUAAGCAAUAUUACGUUGU       False
 4  UUUGAGCAAUAUUACGCUUC       False
 5  UUCAAGCAAUAUUACGGCUA        True
 6  GGCUAGCAAUAUUACGGCUG        True
 7  UGGAAGCAAUAUUACGUUGU       False
 8  UGUAAGCAAUAUUACGCACC        True
 9  UGUAAGCAAUAUUACGGGGG        True
10  CCCUAGCAAUAUUACGGUCG        True
11  CACUAGCAAUAUUACGAUAA        True
12  AAAUAGCAAUAUUACGAAAG        True
13  GUCUAGCAAUAUUACGCUUG        True
14  UGAUAGCAAUAUUACGGAGU       False
15  UUAAAGCAAUAUUACGUUGG        True
16  UUGUAGCAAUAUUACGAAUU        True
17  UUGUAGCAAUAUUACGGCUA        True
18  ACAAAGCAAUAUUACGGAAA        True
19  CGGAAGCAAUAUUACGGUUA       False
20  GCCUAGCAAUAUUACGGAGC        True
21  CUGGAGCAAUAUUACGAAGU       False
22  GUUAAGCAAUAUUACGCUCA        True
23  UUUUAGCAAUAUUACGGAAU       False
24  ACUGAGCAAUAUUACGCUUC       False
25  UAGCAGCAAUAUUACGAAUA        True
26  UUUGAGCAAUAUUACGCCUG        True
27  UUACAGCAAUAUUACGCCCG        True
28  GGUCAGCAAUAUUACGUCCG        True
29  AGCGAGCAAUAUUACGACAA        True
30  GACCAGCAAUAUUACGGAAU        True
31  UUCAAGCAAUAUUACGUAAA        True
32  UGACAGCAAUAUUACGUCUU        True
33  CCGAAGCAAUAUUACGUAUC       False

----------
Readings of self-splicing fitness (ln) for the listed sequences
experimentSummary: self-splicing fitness, log relative to wild type (ln ratio); higher = more splicing; Tetrahymena group I intron in knt gene, E. coli kanamycin selection, DiMSum; sequences stand for … in CUCUCU…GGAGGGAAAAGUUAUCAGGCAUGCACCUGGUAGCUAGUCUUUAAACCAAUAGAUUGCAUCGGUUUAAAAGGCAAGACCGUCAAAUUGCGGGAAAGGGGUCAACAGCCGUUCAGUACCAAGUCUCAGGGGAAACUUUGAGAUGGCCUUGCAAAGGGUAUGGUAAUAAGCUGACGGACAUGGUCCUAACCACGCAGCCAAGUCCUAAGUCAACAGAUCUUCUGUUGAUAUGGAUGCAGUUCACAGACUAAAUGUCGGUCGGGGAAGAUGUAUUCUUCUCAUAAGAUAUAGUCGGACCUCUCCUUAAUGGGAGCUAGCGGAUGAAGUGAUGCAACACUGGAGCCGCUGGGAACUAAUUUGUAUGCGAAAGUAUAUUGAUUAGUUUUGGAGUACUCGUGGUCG
setupConditions: 30 °C
observedProperty: self-splicing fitness (ln)

>>> df
                     seq            observedproperty  resultvalue
 0  GAACAGCAAUAUUACGAACU  self-splicing fitness (ln)       -0.795
 1  CAAAAGCAAUAUUACGCCAU  self-splicing fitness (ln)         -3.4
 2  CACUAGCAAUAUUACGACGG  self-splicing fitness (ln)      -0.0504
 3  AUAUAGCAAUAUUACGUACA  self-splicing fitness (ln)        -1.07
 4  ACAAAGCAAUAUUACGGGGA  self-splicing fitness (ln)        -2.95
 5  UGUAAGCAAUAUUACGACCA  self-splicing fitness (ln)        0.386
 6  AAAUAGCAAUAUUACGAAGC  self-splicing fitness (ln)        -3.18
 7  UUAAAGCAAUAUUACGUCCG  self-splicing fitness (ln)       -0.581
 8  CGAGAGCAAUAUUACGGCGG  self-splicing fitness (ln)        -1.63
 9  AGGAAGCAAUAUUACGUUCC  self-splicing fitness (ln)        -2.96
10  ACGCAGCAAUAUUACGUUCU  self-splicing fitness (ln)         -1.1
11  UCAGAGCAAUAUUACGGAAC  self-splicing fitness (ln)        -2.43
12  UAUCAGCAAUAUUACGUGGA  self-splicing fitness (ln)        -1.05
13  UGGAAGCAAUAUUACGGGAC  self-splicing fitness (ln)        -2.63
14  AAGCAGCAAUAUUACGCUUG  self-splicing fitness (ln)        -2.89
15  GUAAAGCAAUAUUACGGCAG  self-splicing fitness (ln)         -1.5
